Recorded pIC50 by entry
Molecular target: 11β-HSD1 (Homo sapiens, UniProt P28845)
Sequence (P28845 whole entry): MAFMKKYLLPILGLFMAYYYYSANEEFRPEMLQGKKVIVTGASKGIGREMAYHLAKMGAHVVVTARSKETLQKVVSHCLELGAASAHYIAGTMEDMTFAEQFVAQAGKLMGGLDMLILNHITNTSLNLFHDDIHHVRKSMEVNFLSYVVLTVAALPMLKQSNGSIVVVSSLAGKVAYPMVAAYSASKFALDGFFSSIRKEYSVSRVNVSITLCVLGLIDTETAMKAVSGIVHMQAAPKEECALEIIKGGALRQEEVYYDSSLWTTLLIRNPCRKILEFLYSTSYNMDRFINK
Experiment: Biological Test Example 4: microsomal 11β-HSD1 in the presence of 50% human plasma
pIC50 here: minus log base 10 of the concentration, concentration in moles per litre.

// pIC50 value for Cc1cc(-c2ccc([C@H](C)N3CC[C@](CCC(=O)O)(c4ccc(F)cc4)OC3=O)cc2)ccn1 [EXAMPLE 77] : 6.94

Continuing:
Form field pIC50, entry C[C@@H](c1ccc(-c2ccccn2)cc1)N1CC[C@](CCC(N)=O)(c2ccccc2)OC1=O [EXAMPLE 88] : 8.00

Kindly note the recorded pIC50 for Cc1nccc(-c2ccc([C@H](C)N3CC[C@](CC(C)(C)C#N)(c4ccc(F)cc4)OC3=O)cc2)n1 [EXAMPLE 142] , which is 8.09

response.value for C[C@@H](c1ccc(-c2cccnc2)cc1)N1CC[C@](CCC(N)=O)(c2ccccc2)OC1=O [EXAMPLE 47] (field: pIC50) = 7.67

###

Biological target: CYP2C19 (Homo sapiens, UniProt P33261)
Sequence (P33261 whole entry): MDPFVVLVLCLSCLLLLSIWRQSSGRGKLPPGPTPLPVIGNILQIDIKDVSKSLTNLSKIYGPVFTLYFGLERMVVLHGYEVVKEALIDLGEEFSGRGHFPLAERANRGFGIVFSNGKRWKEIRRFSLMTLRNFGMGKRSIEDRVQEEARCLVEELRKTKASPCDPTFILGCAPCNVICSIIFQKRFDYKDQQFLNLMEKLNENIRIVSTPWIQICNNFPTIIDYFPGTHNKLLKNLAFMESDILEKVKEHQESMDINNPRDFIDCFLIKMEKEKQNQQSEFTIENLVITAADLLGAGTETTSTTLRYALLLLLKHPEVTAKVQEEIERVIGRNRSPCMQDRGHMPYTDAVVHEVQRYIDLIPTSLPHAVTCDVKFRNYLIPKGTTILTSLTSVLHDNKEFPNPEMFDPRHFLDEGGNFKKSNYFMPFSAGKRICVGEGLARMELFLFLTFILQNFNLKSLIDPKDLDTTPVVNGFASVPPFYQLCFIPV
Assay: Biological Test Example 8: CYP2C19 inhibition (diazepam N-demethylation)
Type: in vitro ADME
pIC50: −log10 of the molar value.
Quick rule for you: pIC50 at 5 or higher means rule met, lower means rule not met.

Use the examples below as a reference point.
Data request: Given the entry C[C@@H](c1ccc(-c2nncs2)cc1)N1CC[C@](CC(C)(C)O)(c2ccccc2)OC1=O [EXAMPLE 173] , answer whether its pIC50 meets or surpasses 5.
Data returned: rule not met

Data request: Hello, I need to know if C[C@@H](c1ccc(-c2cnn(C)c2)cc1)N1CC[C@](CC(C)(C)O)(c2ccccc2)OC1=O [EXAMPLE 178] has measured pIC50 not below 5. Thanks!
Data returned: rule not met

---
Data request: Could you verify whether the entry COC[C@]1(c2ccccc2)CCN([C@@H](C)c2ccc(-c3ccc(C)nn3)cc2)C(=O)O1 [EXAMPLE 167] shows pIC50 of no less than 5?
Data returned: rule not met

Data request: I'd appreciate it if you could say whether C[C@@H](c1ccc(-c2ccc(C(=O)N(C)C)cn2)cc1)N1CC[C@](CC(C)(C)O)(c2ccccc2)OC1=O [EXAMPLE 156] has pIC50 at least equal to 5.
Data returned: rule not met

Data request: Hi team, for Cc1nnc(-c2ccc([C@H](C)N3CC[C@](CC(C)(C)O)(c4ccccc4)OC3=O)cc2)s1 [EXAMPLE 172] , is the recorded pIC50 at or above 5?
Data returned: rule not met

###

Molecular target: 11β-HSD1 (Homo sapiens, UniProt P28845)
Assay: Biological Test Example 4: microsomal 11β-HSD1 in the presence of 50% human plasma
parameter-measured: pIC50
pIC50 here is simply -log10 of the concentration when that concentration is written in mol/L.

Worked cases, pIC50 given:
Lab note: Cc1cc(-c2ccc([C@H](C)N3CC[C@](CC(C)(C)O)(c4ccccc4)OC3=O)cc2)ccn1 gave pIC50 of 7.97

Cc1nnc(-c2ccc([C@H](C)N3CC[C@](CC(C)(C)O)(c4ccccc4)OC3=O)cc2)s1 yielded pIC50 of 7.97

So, C[C@@H](c1ccc(-c2cccnc2)cc1)N1CC[C@](CCCNS(C)(=O)=O)(c2ccccc2)OC1=O ? Its pIC50 was 7.86

The compound CCOc1cc(-c2ccc([C@H](C)N3CC[C@](CC(C)(C)O)(c4ccccc4)OC3=O)cc2)cc(C)n1 showed pIC50 equal to 7.50

Further cases:
Entry under test: C[C@@H](c1ccc(-c2cncc(Cl)c2)cc1)N1CC[C@](CCCO)(c2ccc(F)cc2)OC1=O . Its pIC50 was 8.20

Measured pIC50 of COc1ccc(-c2ccc([C@H](C)N3CC[C@](CCO)(c4ccc(F)cc4)OC3=O)cc2)cn1 : 7.82

Value of measured pIC50 for the entry Cc1nccc(-c2ccc([C@H](C)N3CC[C@](CCCO)(c4ccc(F)cc4)OC3=O)cc2)n1 : 7.88
